# Exposure (% rPPB), bound drug fraction to plasma protein values compiled below
- Test system: plasma protein
- ASSAY INFO: Determination of plasma protein binding (equilibrium dialysis, RED)
- Format: in vitro ADME
- CONDITIONS: 4 hours at 37° C.
MEASURED ATTRIBUTE: Exposure (% rPPB), bound drug fraction to plasma protein (%)

• CC(F)c1noc(-c2nnc3n2CCN(C(=O)c2ccc(F)cc2)[C@@H]3C)n1 (some centres unmarked) [Compound 45] = 31
• Cc1nsc(-c2nnc3n2CCN(C(=O)c2ccc(Cl)c(Cl)c2)C3C)n1 (racemic) = 76
• Cc1nsc(-c2nnc3n2CCN(C(=O)c2ccccc2C)[C@@H]3C)n1 = 19
• Cc1nsc(-c2nnc3n2CCN(C(=O)c2ccc(F)c(Cl)c2)C3C)n1 (racemic) = 52
• Cc1nsc(-c2nnc3n2CCN(C(=O)c2cc(F)c(F)c(F)c2)[C@@H]3C)n1 = 26
• Cc1nsc(-c2nnc3n2CCN(C(=O)c2cc(F)c(F)c(F)c2F)[C@@H]3C)n1 = 30
• Cc1nsc(-c2nnc3n2CCN(C(=O)c2ccc(F)c(F)c2F)[C@@H]3C)n1 = 29
• CCC1c2nnc(-c3nc(C)ns3)n2CCN1C(=O)c1ccc(F)cc1 (racemic) = 34
• COc1cccc(C(=O)N2CCn3c(-c4nc(C)ns4)nnc3[C@H]2C)c1 = 24
• Cc1nsc(-c2nnc3n2CCN(C(=O)c2ccc(C#N)cc2)[C@@H]3C)n1 = 10
• Cc1nsc(-c2nnc3n2CCN(C(=O)c2ccc(F)cc2)C3C)n1 (racemic) = 21
• CCc1noc(-c2nnc3n2CCN(C(=O)c2ccc(F)cc2)C3C)n1 (racemic) = 24
• Cc1nsc(-c2nnc3n2CCN(C(=O)c2ccc(F)c(Cl)c2)[C@@H]3C)n1 = 53
• Cc1nsc(-c2nnc3n2CCN(C(=O)c2ccc(C(F)(F)F)cc2)[C@@H]3C)n1 = 38
• CCc1noc(-c2nnc3n2CCN(C(=O)c2ccc(-c4cccs4)cc2)[C@@H]3C)n1 = 94
• C[C@@H]1c2nnc(-c3nc(CC(F)(F)F)no3)n2CCN1C(=O)c1ccc(F)cc1 = 31
• COc1cc(C(=O)N2CCn3c(-c4nc(C)ns4)nnc3[C@H]2C)ccc1F = 19

###

- TEST SYSTEM: human NK-3 receptor (Homo sapiens (Human), UniProt P29371)
- Sequence (P29371 whole entry): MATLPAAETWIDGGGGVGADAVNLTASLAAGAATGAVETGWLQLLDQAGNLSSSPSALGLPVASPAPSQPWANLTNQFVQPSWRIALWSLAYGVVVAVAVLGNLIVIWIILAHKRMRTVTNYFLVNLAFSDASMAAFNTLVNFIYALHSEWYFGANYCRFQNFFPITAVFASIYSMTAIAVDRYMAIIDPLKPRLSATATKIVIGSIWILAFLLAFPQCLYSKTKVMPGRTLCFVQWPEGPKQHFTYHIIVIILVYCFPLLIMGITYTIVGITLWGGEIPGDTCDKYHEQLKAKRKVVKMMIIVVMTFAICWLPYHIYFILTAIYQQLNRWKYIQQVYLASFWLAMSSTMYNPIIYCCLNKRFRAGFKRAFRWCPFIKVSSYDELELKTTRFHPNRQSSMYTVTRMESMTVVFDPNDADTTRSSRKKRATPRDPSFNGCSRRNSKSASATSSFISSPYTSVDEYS
- ASSAY INFO: 3H-SB222200 binding competition assay with human NK-3 receptor
- CONDITIONS: Table 2; 5 nM 3H-SB222200, CHO membranes; read-out: Competitive binding assay with human NK-3 receptor hNK-3 (Ki)
pKi: −log10 of the molar value.
# pKi values compiled below
MEASURED ATTRIBUTE: pKi

* Cc1nsc(-c2nnc3n2CCN(C(=O)c2cccc(Cl)c2)[C@@H]3C)n1 | 7.31
* Cc1nsc(-c2nnc3n2CCN(C(=O)c2ccc(F)cc2)[C@@H]3C)n1 | 7.64
* Cc1nsc(-c2nnc3n2CCN(C(=O)c2cccc(F)c2)[C@@H]3C)n1 | 7.35
* CC(F)c1noc(-c2nnc3n2CCN(C(=O)c2ccc(F)cc2)[C@@H]3C)n1 (single isomer, unassigned) [Compound 45-1] | 7.00

###

# pKi values compiled below
- TEST SYSTEM: human NK-3 receptor (Homo sapiens (Human), UniProt P29371)
- ASSAY INFO: 3H-SB222200 binding competition assay with human NK-3 receptor
- CONDITIONS: Table 2; 5 nM 3H-SB222200, CHO membranes; read-out: Competitive binding assay with human NK-3 receptor hNK-3 (Ki)
pKi: −log10 of the molar value.
MEASURED ATTRIBUTE: pKi

* Cc1nsc(-c2nnc3n2CCN(C(=O)c2ccc(F)c(Cl)c2)C3C)n1 (racemic) | 7.14
* CCc1noc(-c2nnc3n2CCN(C(=O)c2ccc(F)cc2)[C@@H]3C)n1 | 7.40
* C[C@@H]1c2nnc(-c3nc(CC(F)(F)F)no3)n2CCN1C(=O)c1ccc(F)cc1 | 7.35
* Cc1nsc(-c2nnc3n2CCN(C(=O)c2ccc(F)c(F)c2F)C3C)n1 (racemic) | 7.05
* Cc1nsc(-c2nnc3n2CCN(C(=O)c2cc(F)c(F)c(F)c2)C3C)n1 (racemic) | 7.42
* Cc1nsc(-c2nnc3n2CCN(C(=O)c2ccc(Cl)c(Cl)c2)[C@@H]3C)n1 | 7.96
* Cc1nsc(-c2nnc3n2CCN(C(=O)c2ccc(Cl)cc2)[C@@H]3C)n1 | 7.72
* CC(F)c1noc(-c2nnc3n2CCN(C(=O)c2ccc(F)cc2)[C@@H]3C)n1 (single isomer, unassigned) [Compound 45-2] | 7.08
